B1: Double-stranded RNA-binding protein Staufen homolog 1, residues 183 to 249; numbered along this chain, O95793 (parent)
chain: KSEISQVFEIALKRNLPVNFEVARESGPPHMKNFVTKVSVGEFVGEGEGKSKKISKKNAAIAVLEEL

Variants of: B1
assay.info: abundance fitness (aPCA) (normalised: wild type 0, dead -1); higher = more abundant; growth selection in yeast, the domain comes from the species named
test.conditions: Homo sapiens
Would you please tag the item true when its abundance fitness is -0.08 or above, and false when it is below?

Does the reported abundance fitness for `L67D` fall at or above the -0.08 mark?
false

Is it the case that `K1E` has abundance fitness reaching or exceeding -0.08?
false

Given `G47V` , state whether its abundance fitness is at least -0.08.
false

Check this variant for abundance fitness at or above -0.08: `V18N`
false

Quick check, abundance fitness >= -0.08? `G27Y`
false

Does the variant `G49D` have recorded abundance fitness that is -0.08 or more?
false

Can `N58V` be said to have abundance fitness at or above -0.08?
false

Can `V35M` be said to have abundance fitness at or above -0.08?
false

Say whether `V35K` shows abundance fitness of -0.08 or more.
true

Form field: abundance fitness at least -0.08? Entry: `T36F`
false

Determine whether measured abundance fitness meets or exceeds -0.08 for `K52N`
false

Given `V22H` , state whether its abundance fitness is at least -0.08.
false

Please tell me: is the variant `E46F` at or over -0.08 in terms of abundance fitness?
true

Dear colleague, could you confirm whether `K37Q` has abundance fitness at or above -0.08?
false

Is the recorded value of abundance fitness equal to or greater than -0.08 for this variant? `E46H`
true

Could you please find out whether `K50C` has abundance fitness that meets -0.08 or exceeds it?
true

Is abundance fitness for `R14H` at or above -0.08?
false

Textbook exercise: given the entry `A23S` , state whether its abundance fitness is greater than or equal to -0.08.
true

Check this variant for abundance fitness at or above -0.08: `F8M`
false

Quick check, abundance fitness >= -0.08? `E25P`
false

Does the reported abundance fitness for `N58A` fall at or above the -0.08 mark?
false

Has `T36I` a recorded abundance fitness greater than or equal to -0.08?
false
